Tested on: ACHN
Test: NCI tumour cell line growth inhibition, 48 h
Calls of active or inactive are those of the source. Rule as the data show it: active = GI50 up to about 1.1 µM and inactive = higher.
Hi! Could you answer with just one of these? 1 (yes) = active, 0 (no) = inactive

Data request: Per the assay record, what outcome was assigned to "O=C(O)c1cc2ccc3ccccc3c2oc1=O" ?
Data returned: 0 (no)

Data request: Per the assay record, what outcome was assigned to [O-][S+](c1ccccc1)C1CC2CC3(CCC21O)OCCO3 (stereo not drawn) ?
Data returned: 0 (no)

Data request: Per the assay record, what outcome was assigned to OCC(O)COc1ccc(F)cc1 (stereo not drawn) ?
Data returned: 0 (no)

Data request: Per the assay record, what outcome was assigned to CCOC(=O)CCC(NC(=O)Cc1ccc(Nc2nc3ccccc3nc2-c2ccccc2)cc1)C(=O)OCC (stereo not drawn) ?
Data returned: 0 (no)

Data request: Per the assay record, what outcome was assigned to "CN(C)CCCNc1ccc2ncn3c4ccc(O)cc4c(=O)c1c23" ?
Data returned: 1 (yes)

Data request: Per the assay record, what outcome was assigned to "Cc1cccc(-c2cc(O)c3cc(C)cnc3n2)c1" ?
Data returned: 1 (yes)

Data request: Per the assay record, what outcome was assigned to N#CC(C(=O)CCCC(=O)Nc1ccc(Cl)cc1Cl)c1ccc(Cl)cc1 (stereo not drawn) ?
Data returned: 0 (no)

Data request: Per the assay record, what outcome was assigned to COC1C(OC(=O)c2ccc(C)[nH]2)C(O)C(Oc2ccc3c(O)c(NC(=O)c4ccc(O)c(CC=C(C)C)c4)c(=O)oc3c2Cl)OC1(C)C (stereo not drawn) ?
Data returned: 0 (no)

====

Give GI50 for every item shown.
Tested on: CCRF-CEM
Test: NCI tumour cell line growth inhibition, 48 h
Active and inactive are the calls of the source. No stated cut-off is given here; in the data, active = GI50 up to about 1.1 µM and inactive = higher.

Data request: Could you tell me which GI50 is on file for C=CC1(C)OC2(CCN(C(=O)OCC)CC2)OC1C (stereo unspecified) ?
Data returned: > 100 µM (inactive)

Data request: Could you tell me which GI50 is on file for Oc1c(C(Nc2ccccn2)c2ccccc2)ccc2cccnc12 (stereo unspecified) ?
Data returned: 1.37 µM (inactive)

Data request: Could you tell me which GI50 is on file for "COc1c(O)cc2c(c1O)C(=O)C1=C(CCCC1)C2=O" ?
Data returned: 1.87 µM (inactive)

Data request: Could you tell me which GI50 is on file for "Nc1cc(Cl)ccc1SSc1ccc(Cl)cc1N" ?
Data returned: 3.07 µM (inactive)

Data request: Could you tell me which GI50 is on file for "O=C(c1cc(Cl)cc(Cl)c1)N(C(=O)N1CCN(c2ccccc2)CC1)c1ccccc1" ?
Data returned: 22.5 µM (inactive)

Data request: Could you tell me which GI50 is on file for "CCOC(=O)c1ccc2c(=O)n3c(C(=O)OCC)ccc3c(=O)n12" ?
Data returned: > 100 µM (inactive)

====

System: SNB-78
Experiment: NCI tumour cell line growth inhibition, 48 h
Active and inactive are the calls of the source. No stated cut-off is given here; in the data, active = GI50 up to about 1.1 µM and inactive = higher.
Give GI50 for every item shown.

Data request: Could you tell me which GI50 is on file for CC1(C)C2CCC13CS(=O)(=O)N1O[C@]13C(=O)O2 (stereo partly specified) ?
Data returned: > 100 µM (inactive)

Data request: Could you tell me which GI50 is on file for CC(=O)O[C@H]1CC[C@@]2(C)C(=CC[C@H]3C4=CC=C(C(C)=O)[C@@]4(C)CCC32)C1 (stereo partly specified) ?
Data returned: 28.2 µM (inactive)

Data request: Could you tell me which GI50 is on file for "COc1ccc(N2C(=O)[C@@H](N=[N+]=[N-])[C@@H]2[C@H]2COC(C)(C)O2)cc1" ?
Data returned: > 100 µM (inactive)

Data request: Could you tell me which GI50 is on file for "N#C/C(=C\c1ccccc1O)C(N)=O" ?
Data returned: 46 µM (inactive)

Data request: Could you tell me which GI50 is on file for "c1ccc2cc3[s+]snc3cc2c1" ?
Data returned: > 100 µM (inactive)

Data request: Could you tell me which GI50 is on file for COC(=O)C1=C(O)c2cc(OC)c(OC)c(OC)c2[C@H](c2cc(OC)c(OC)c(OC)c2)C1C(=O)OC (stereo partly specified) ?
Data returned: 32.1 µM (inactive)

Data request: Could you tell me which GI50 is on file for CCCC(O)C(NC(=O)CCl)C(=O)O (stereo unspecified) ?
Data returned: > 100 µM (inactive)

Data request: Could you tell me which GI50 is on file for COc1ccc2c(c1O)C(=O)C(CCC(=O)O)CC2 (stereo unspecified) ?
Data returned: > 100 µM (inactive)

Data request: Could you tell me which GI50 is on file for COC(=O)CCC(NC(=S)N/N=C(\C)c1cnccn1)C(=O)OC (stereo unspecified) ?
Data returned: > 100 µM (inactive)

Data request: Could you tell me which GI50 is on file for "COc1cc(Cn2c3ccccc3c3cc(C)cc(OC)c32)cc2c1[nH]c1ccccc12" ?
Data returned: 23.1 µM (inactive)

Data request: Could you tell me which GI50 is on file for O=C(CC1Sc2ccccc2NC1=O)Nc1ccc([N+](=O)[O-])cc1[N+](=O)[O-] (stereo unspecified) ?
Data returned: 21.2 µM (inactive)

====

System: MDA-MB-231
Experiment: NCI tumour cell line growth inhibition, 48 h
The source made the active and inactive calls. Cut-off read from the data, not from the text of the source: active = GI50 up to about 1.1 µM and inactive = higher.
Hi! Could you answer with just one of these? 1 (yes) for active, 0 (no) for inactive

Data request: Per the assay record, what outcome was assigned to "COC(=O)[C@@H]1[C@H](O)CCC2=C(CC(=O)c3ccoc3)[C@H](C)CC[C@]21C" ?
Data returned: 0 (no)

Data request: Per the assay record, what outcome was assigned to C=C1OC2OC(C)C(NC(=O)OCC(Cl)(Cl)Cl)C(OC(C)=O)C2O1 (stereo not drawn) ?
Data returned: 0 (no)

Data request: Per the assay record, what outcome was assigned to C=C1C(=O)OC2/C=C(\C)C(O)CC(O)C(C)(O)CC(OC(=O)/C(C)=C/C)C12 (stereo not drawn) ?
Data returned: 0 (no)

Data request: Per the assay record, what outcome was assigned to "C/C(=C\CO)CC[C@@H]1[C@@]2(C)CCCC(C)(C)[C@@H]2CC[C@@]1(C)O" ?
Data returned: 0 (no)

Data request: Per the assay record, what outcome was assigned to CN1C(=O)c2ccccc2OC12C=Cc1c(ccc3ccccc13)O2 (stereo not drawn) ?
Data returned: 0 (no)

Data request: Per the assay record, what outcome was assigned to "CN(C)c1nc2nonc2nc1Nc1ccccc1" ?
Data returned: 0 (no)

Data request: Per the assay record, what outcome was assigned to CC(=O)OC1(C)C(=O)OC/C2=C/CN(C)CCC(OC(=O)C(O)(C(C)Cl)CC1C)C2=O.c1ccccc1 (stereo not drawn) ?
Data returned: 0 (no)

Data request: Per the assay record, what outcome was assigned to Cc1nc(C)c(N2CCN(C(=O)NC(CCC(=O)O)C(=O)O)CC2)c(O)n1 (stereo not drawn) ?
Data returned: 0 (no)

Data request: Per the assay record, what outcome was assigned to "CCn1c(SCc2nnc(Nc3ccccc3)s2)nc2ccccc2c1=O" ?
Data returned: 0 (no)

Data request: Per the assay record, what outcome was assigned to "COc1ccc(-c2cc3c(nn2)-c2ccccc2C3=O)cc1" ?
Data returned: 0 (no)

Data request: Per the assay record, what outcome was assigned to "OC(Cc1ccc2ccccc2n1)(C(F)(F)Cl)C(F)(F)Cl" ?
Data returned: 0 (no)

Data request: Per the assay record, what outcome was assigned to CC(C)(C)C1CCC2c3c([nH]c4ccccc34)C3C(=O)N(c4cc(Br)cc(Br)c4)C(=O)C3C2C1 (stereo not drawn) ?
Data returned: 0 (no)

Data request: Per the assay record, what outcome was assigned to O=C(O)C12C3C4(C(=O)O)C1C1(C(=O)O)C2C3(C(=O)O)C41 (stereo not drawn) ?
Data returned: 0 (no)

Data request: Per the assay record, what outcome was assigned to "Clc1cc2ccccc2c2ccccc12" ?
Data returned: 0 (no)

Data request: Per the assay record, what outcome was assigned to "Cc1ccc(Nc2n[nH]c(=S)s2)cc1C" ?
Data returned: 0 (no)

Data request: Per the assay record, what outcome was assigned to "O=C1/C(=C2/CCCN2)C(c2ccc[nH]2)=NN1c1ccccc1" ?
Data returned: 0 (no)

Data request: Per the assay record, what outcome was assigned to "COc1cc(-c2c3c([nH]c(=O)c2C#N)-c2cc([N+](=O)[O-])ccc2CCC3)cc(OC)c1OC" ?
Data returned: 0 (no)

Data request: Per the assay record, what outcome was assigned to "CC1=CC(=O)c2c(O)cccc2C1=O" ?
Data returned: 0 (no)

Data request: Per the assay record, what outcome was assigned to "N#C/N=C(/N)c1sc2nc3c(c(-c4ccc(Br)cc4)c2c1N)CCCC3" ?
Data returned: 0 (no)

Data request: Per the assay record, what outcome was assigned to "COc1ccc2c(c1)c1c(C)c3cnccc3c(C)c1n2CCCN" ?
Data returned: 1 (yes)

Data request: Per the assay record, what outcome was assigned to N#CC(/N=N/c1ccccc1)c1nc2ccccc2o1 (stereo not drawn) ?
Data returned: 0 (no)

Data request: Per the assay record, what outcome was assigned to "O=C(CSc1ncnc2[nH]cnc12)c1ccccc1" ?
Data returned: 0 (no)

Data request: Per the assay record, what outcome was assigned to "CCN(CC)CCC(=O)Nc1ccc2sc3ccccc3c(=O)c2n1" ?
Data returned: 0 (no)

Data request: Per the assay record, what outcome was assigned to "Cc1cccc(-c2cc(O)c3cc(C)cnc3n2)c1" ?
Data returned: 1 (yes)

Data request: Per the assay record, what outcome was assigned to "C[C@@H]1OC(=O)/C(=C\N(C)C)[C@H]2CC(=O)N(CCc3cn(S(=O)(=O)C(F)(F)F)c4ccccc34)C[C@H]12" ?
Data returned: 0 (no)

Data request: Per the assay record, what outcome was assigned to O=C1Nc2ccccc2C1Cc1ccc([N+](=O)[O-])cc1 (stereo not drawn) ?
Data returned: 0 (no)

Data request: Per the assay record, what outcome was assigned to O=C(O)C1C(C(=O)Nc2ccc3c(c2)Cc2ccccc2-3)C2(Cl)C(Cl)=C(Cl)C1(Cl)C2(Cl)Cl (stereo not drawn) ?
Data returned: 0 (no)

Data request: Per the assay record, what outcome was assigned to "CCOC(=O)c1ccc2c(=O)n3c(C(=O)OCC)ccc3c(=O)n12" ?
Data returned: 0 (no)

Data request: Per the assay record, what outcome was assigned to COc1ccc(OC)c(C2CCc3c(cnc4nc(N)nc(N)c34)C2)c1 (stereo not drawn) ?
Data returned: 0 (no)

Data request: Per the assay record, what outcome was assigned to "CN1C(=O)C(=Cc2ccc(Br)cc2)C(=O)N(C)C1=O" ?
Data returned: 0 (no)

Data request: Per the assay record, what outcome was assigned to "O=C(O)CC[P+](c1ccccc1)(c1ccccc1)c1ccccc1" ?
Data returned: 0 (no)

Data request: Per the assay record, what outcome was assigned to O=C1OC(C2Cc3ccc4ccccc4c3C2=O)c2ccccc21 (stereo not drawn) ?
Data returned: 0 (no)

Data request: Per the assay record, what outcome was assigned to "Cc1ccc(S(=O)(=O)NC(=O)NCc2ccc(S(N)(=O)=O)cc2)cc1" ?
Data returned: 0 (no)

Data request: Per the assay record, what outcome was assigned to O=C(O)c1ccccc1CC(Cc1ccc2c(c1)CCC2)C(=O)O (stereo not drawn) ?
Data returned: 0 (no)

Data request: Per the assay record, what outcome was assigned to "Cc1cc2c(cc1Cl)SC(NNC(=O)c1ccco1)=NS2(=O)=O" ?
Data returned: 0 (no)

Data request: Per the assay record, what outcome was assigned to "Nc1cc(Cl)ccc1SSc1ccc(Cl)cc1N" ?
Data returned: 0 (no)

Data request: Per the assay record, what outcome was assigned to COC(=O)c1ccccc1C1CN=NC12Cc1ccc3c(c1C2=O)CCC3 (stereo not drawn) ?
Data returned: 0 (no)

Data request: Per the assay record, what outcome was assigned to "COc1ccc2nc3ccc(OC)cc3c(SCc3ccccc3)c2c1" ?
Data returned: 0 (no)

Data request: Per the assay record, what outcome was assigned to C=CC1(C)OC2(CCN(C(=O)OCC)CC2)OC1C (stereo not drawn) ?
Data returned: 0 (no)

Data request: Per the assay record, what outcome was assigned to "CC1(C)CC(=O)c2c(nc3c(ccc4ccccc43)c2-c2ccc(NC(=O)CCCCCCCCC(=O)Nc3ccc(-c4c5c(nc6c4ccc4ccccc46)CC(C)(C)CC5=O)cc3)cc2)C1" ?
Data returned: 0 (no)

Data request: Per the assay record, what outcome was assigned to "CCOP(=O)(C/C=C/Cn1ncc(=O)[nH]c1=O)OCC" ?
Data returned: 0 (no)

Data request: Per the assay record, what outcome was assigned to "O=C(Nc1nn(C(=O)c2cccnc2)c(=O)s1)c1ccc(Cl)cc1" ?
Data returned: 0 (no)

Data request: Per the assay record, what outcome was assigned to CC1=C/C(=N\NC(N)=S)C(C(O)(C(F)(F)F)C(F)(F)F)C(C)(C)C1 (stereo not drawn) ?
Data returned: 0 (no)
